Origin of the recorded values: ChEMBL document CHEMBL5584204

target.or.system: Beta-glucuronidase (Homo sapiens, UniProt P08236)
Sequence (P08236 whole entry): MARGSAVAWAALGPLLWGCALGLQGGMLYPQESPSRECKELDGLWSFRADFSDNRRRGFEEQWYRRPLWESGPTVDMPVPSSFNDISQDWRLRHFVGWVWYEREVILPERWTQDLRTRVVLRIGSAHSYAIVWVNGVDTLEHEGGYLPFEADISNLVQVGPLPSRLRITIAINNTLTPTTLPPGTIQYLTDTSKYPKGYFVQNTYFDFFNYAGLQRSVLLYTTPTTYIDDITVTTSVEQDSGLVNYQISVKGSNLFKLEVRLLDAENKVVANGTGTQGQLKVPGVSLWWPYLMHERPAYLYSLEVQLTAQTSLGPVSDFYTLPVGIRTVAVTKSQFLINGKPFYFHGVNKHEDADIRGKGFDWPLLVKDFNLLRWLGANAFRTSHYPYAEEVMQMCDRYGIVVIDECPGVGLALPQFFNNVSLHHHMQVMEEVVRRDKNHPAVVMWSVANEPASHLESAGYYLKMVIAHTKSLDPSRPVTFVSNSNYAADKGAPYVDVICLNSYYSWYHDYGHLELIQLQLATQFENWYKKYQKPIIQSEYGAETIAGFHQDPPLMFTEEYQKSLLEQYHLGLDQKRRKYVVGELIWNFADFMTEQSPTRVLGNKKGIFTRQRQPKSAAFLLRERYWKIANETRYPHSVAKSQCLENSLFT
pIC50: −log10 of the molar value.

- compound.structure.string: "CC(C)O[C@H]1[C@H](O)[C@@H](O)c2nc(CCc3cccc(Oc4ccccc4)c3)cn2[C@@H]1C(=O)O"
  pIC50: 4.38
